# assay_method_text: Aqueous solubility of extractants by qNMR
# Type: physicochemical
# test_settings: water, thermodynamic from solid; experimentally determined; in D2O by qNMR
endpoint_label: solubility at 30 min (µM)

{"compound": "COP(=O)(O)C(Nc1ccc(C(C)(C)C)cc1)c1ccc(C(C)(C)C)cc1 (stereo not drawn) [Extractant 2]", "unit_abbrev": "µM", "solubility at 30 min": 100}
{"compound": "CCCCCCCCOP(=O)(O)C(Nc1cc(C(F)(F)F)cc(C(F)(F)F)c1)c1ccc(C(C)(C)C)cc1 (stereo not drawn) [Extractant 7]", "unit_abbrev": "µM", "solubility at 30 min": 80}

I = COCCOCCOP(=O)(O)C(Nc1cc(C(F)(F)F)cc(C(F)(F)F)c1)c1ccc(C(F)(F)F)cc1 (stereo not drawn) [Extractant 8]
II = CCCCCCCCOP(=O)(O)C(Nc1ccc(OC)cc1)c1cccs1 (stereo not drawn) [Extractant 3]
III = CCCCCCCCOP(=O)(O)C(Nc1ccc(C(F)(F)F)cc1)c1ccc(C(C)(C)C)cc1 (stereo not drawn) [Extractant 4]
IV = CCCCCCCCOP(=O)(O)C(Nc1ccc(OC)cc1)c1ccc(C(F)(F)F)cc1 (stereo not drawn) [Extractant 5]
Prompt: Arrange by solubility at 30 min, high to low. # the answer lists labels in the order requested
Completion: I, II, III, IV
(I: 1600 µM, II: 250 µM, III: 80 µM, IV: 40 µM)

A = COCCOCCOP(=O)(O)C(Nc1cc(C(F)(F)F)cc(C(F)(F)F)c1)c1cc(C(F)(F)F)cc(C(F)(F)F)c1 (stereo not drawn) [Extractant 9]
B = CCCCCCCCOP(=O)(O)C(Nc1ccccc1)c1ccccc1 (stereo not drawn) [Extractant 1, reference compound]
Prompt: Select one. Lower solubility at 30 min: A or B When you have decided, please share the label of that item.
Completion: B

Taken from paper PMC9735965.
